Reference for the values: PubChem BioAssay (NCI)

- Assay Text: NCI Yeast Anticancer Drug Screen. Data for the mec2-1 strain (AID 157)
- Particulars: S. cerevisiae mec2-1 strain, at 5.0 µM (retest, dose inferred, filed as 0.5)
About 79,000 compounds went through this panel and 15% of them were active in at least one assay; those are over-represented in the sample as a whole. The source made the active and inactive calls. Cut-off read from the data, not from the text of the source: active = growth inhibition above about 70%; inactive = the rest.
Classes used: active, inactive

Molecule: CC(C)(N=Nc1ccc([N+](=O)[O-])cc1)[N+](=O)[O-]
Classification: inactive

Molecule: c1cc[c]([Sn]([S]c2cccc3cccnc23)([S]c2cccc3cccnc23)[c]2ccccc2)cc1
Classification: active

Molecule: CCS(=O)(=O)/C=C/c1ccc2ccccc2n1
Classification: inactive

Molecule: CCN(CC)CCCNc1nccc2c(C)c3[nH]c4ccncc4c3cc12
Classification: inactive

Molecule: O=C1C(c2ccccc2)=S=C2C=CC=CN12
Classification: inactive

Molecule: Cc1ccc(N=NC(C(=O)c2ccccc2)C(=O)c2ccccc2)cc1
Classification: inactive

Molecule: Nc1nc(N)c2cc(S(=O)c3ccc4ccccc4c3)ccc2n1 (stereo not drawn)
Classification: inactive

Molecule: O=[N+]([O-])c1ccc(Cl)cc1C=NC12CC3CC(CC(C3)C1)C2
Classification: inactive
